Target: Human PARP-1 enzyme (Homo sapiens, UniProt P09874)
Construct: purchased Trevigen
Sequence (P09874 whole entry): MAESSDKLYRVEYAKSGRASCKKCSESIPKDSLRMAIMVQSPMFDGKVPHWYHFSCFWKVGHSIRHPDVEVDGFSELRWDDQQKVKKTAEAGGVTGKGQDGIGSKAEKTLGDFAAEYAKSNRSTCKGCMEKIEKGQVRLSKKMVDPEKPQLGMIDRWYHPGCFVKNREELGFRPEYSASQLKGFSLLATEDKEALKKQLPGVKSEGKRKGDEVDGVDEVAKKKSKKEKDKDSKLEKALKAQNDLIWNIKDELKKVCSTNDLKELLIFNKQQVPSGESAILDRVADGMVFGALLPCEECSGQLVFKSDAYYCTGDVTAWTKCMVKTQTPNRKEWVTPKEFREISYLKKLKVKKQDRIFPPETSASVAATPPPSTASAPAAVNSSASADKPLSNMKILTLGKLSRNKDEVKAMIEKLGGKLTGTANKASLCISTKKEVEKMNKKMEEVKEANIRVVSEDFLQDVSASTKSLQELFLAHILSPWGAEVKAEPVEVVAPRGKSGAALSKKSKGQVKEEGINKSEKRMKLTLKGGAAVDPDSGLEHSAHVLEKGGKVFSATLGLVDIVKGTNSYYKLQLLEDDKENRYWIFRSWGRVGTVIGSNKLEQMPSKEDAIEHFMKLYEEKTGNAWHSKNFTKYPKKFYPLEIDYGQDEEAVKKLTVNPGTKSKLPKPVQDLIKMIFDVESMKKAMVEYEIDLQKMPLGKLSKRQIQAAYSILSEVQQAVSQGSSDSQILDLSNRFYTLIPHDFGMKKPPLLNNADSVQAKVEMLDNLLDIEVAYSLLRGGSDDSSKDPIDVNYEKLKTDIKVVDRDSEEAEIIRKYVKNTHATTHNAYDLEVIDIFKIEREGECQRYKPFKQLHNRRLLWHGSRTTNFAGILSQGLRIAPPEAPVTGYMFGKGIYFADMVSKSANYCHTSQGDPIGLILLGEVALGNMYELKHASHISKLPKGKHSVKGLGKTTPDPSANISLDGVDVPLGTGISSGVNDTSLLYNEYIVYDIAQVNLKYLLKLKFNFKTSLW
Assay: In vitro Scintillation Proximity Assay (SPA) for PARP-1 inhibitory activity
Type: biochemical
Conditions: read-out: in vitro SPA assay PARP-1 pIC50 (converted)
We label by threshold. Values of IC50 strictly beneath 200 nM are Y. Values of 200 nM and up are N.

compound="CCc1cc2ccc(C(C)(C#N)CCOc3ccc(SC)cc3)cc2[nH]c1=O (centres unmarked)" group_label=N
compound=Cc1cc2ccc([C@](C)(C#N)[C@@H]3CCc4cc(Br)ccc43)cc2[nH]c1=O group_label=Y
compound="CCc1cc2ccc(C(C)(C#N)Cc3cccc(Cl)c3Cl)cc2[nH]c1=O (centres unmarked)" group_label=N
compound="CCc1cc2ccc(C(C)(C#N)Cc3cccc(C#CCOC)c3)cc2[nH]c1=O (centres unmarked)" group_label=Y
compound="CCc1cc2ccc(C(C)(C#N)Cc3cccc(OCCCC#N)c3)cc2[nH]c1=O (centres unmarked)" group_label=Y
compound="CCc1cc2ccc(C(C#N)(Cc3ccccc3)c3ccccc3)cc2[nH]c1=O (centres unmarked)" group_label=N
compound="CCc1cc2ccc(C(C)(C#N)Cc3cc(N(C)C)nc(Cl)n3)cc2[nH]c1=O (centres unmarked)" group_label=Y

---

Test system: PC3 cells
Assay: EB1 Comet (microtubule disruption) assay
Type: cell-based, human
Details: Homo sapiens, PC-3, 1 h, 1 hour treatment, read-out: EB1 pLAC (converted)
Description: The Eb1 Comet assay relies on the detection of the Eb1 protein at the plus end of polymerizing microtubules (Mimori-Kiyosue, 2000) using indirect immunofluorescence. […] Briefly, human prostate cancer PC3 cells obtained from the American Type Culture Collection were grown in 96-well plates (Greiner, cat. no. 655090) in HAM's F12 medium as recommended by the provider (ATCC). […] Compound dependent microtubule disruption was visually determined by the disappearance in Eb1 foci. […]
Label True when minimal effective concentration >= 0.3 µM; otherwise False.

molecule="CCCn1ccnc1CC(C)(C#N)c1ccc2cc(CC)c(=O)[nH]c2c1 (centres unmarked) [Compound 335]" group_label=True
molecule="CCc1cc2ccc(C(C)(C#N)Cc3cc(C)ccc3C)cc2[nH]c1=O (centres unmarked) [Compound 78]" group_label=False
molecule="CCc1cc2ccc(C(C)(C#N)Cc3cccc(OCCOC)c3)cc2[nH]c1=O (centres unmarked) [Compound 24]" group_label=True
molecule="CCc1cc2ccc(C(C)(C#N)Cc3cccc(C)c3F)cc2[nH]c1=O (centres unmarked) [Compound 132]" group_label=True
molecule="CCc1cc2ccc(C(C)(C#N)Cc3cccc(Br)c3)cc2[nH]c1=O (centres unmarked) [Compound 49]" group_label=True
molecule="CCc1cc2ccc(C(C)(C#N)CC3Oc4ccccc4O3)cc2[nH]c1=O (centres unmarked) [Compound 398]" group_label=True
molecule="CCc1cc2ccc(C(C)(C#N)Cc3cccc(I)n3)cc2[nH]c1=O (centres unmarked) [Compound 214]" group_label=False
molecule="CCc1cc2ccc([C@@](C)(C#N)Cc3cccc(N(C)C)c3)cc2[nH]c1=O (single isomer, unassigned) [Compound 258]" group_label=True

---

Test system: PC3 cells
Assay: EB1 Comet (microtubule disruption) assay
Format: cell-based, human
Conditions: Homo sapiens, PC-3, 1 h, 1 hour treatment, read-out: EB1 pLAC (converted)
readout-type: minimal effective concentration (µM)

molecule="CCc1cc2ccc(C(C)(C#N)CCOc3ccc4ccccc4c3)cc2[nH]c1=O (stereo not shown)" measured_target="PC3 cells" readout_type="minimal effective concentration" unit_text=µM value_reported=0.1
molecule="CCc1cc2ccc(C(C)(C#N)C(C)c3ccccc3)cc2[nH]c1=O (stereo not shown)" measured_target="PC3 cells" readout_type="minimal effective concentration" unit_text=µM value_reported=0.316
molecule="CCc1cc2ccc(C(C)(C#N)Cc3cccc(OCC4CC4)c3)cc2[nH]c1=O (stereo not shown)" measured_target="PC3 cells" readout_type="minimal effective concentration" unit_text=µM value_reported=0.316
molecule="CCc1cc2ccc(C(C)(C#N)Cc3nc(C#N)cc(OC)n3)cc2[nH]c1=O (stereo not shown)" measured_target="PC3 cells" readout_type="minimal effective concentration" unit_text=µM value_reported=0.0316

---

compounds and their reported PC3 antiproliferative activity pIC50
Tested on: PC-3 cells
Experiment: Antiproliferative activity, Alamar Blue assay, PC-3 cells
Type: cell-based, human
Conditions: PC3 cells
readout-type: PC3 antiproliferative activity pIC50

compound="CCc1cc2ccc(C(C)(C#N)Cc3cc(Cl)cc4c3OCOC4)cc2[nH]c1=O (stereo not shown) [Compound 90]" relational_operator== value_reported=5.8
compound="Cc1cc2ccc(C(C)(C#N)C3CCc4cc(Br)ccc43)cc2[nH]c1=O (stereo not shown) [Compound 243]" relational_operator== value_reported=5.2
compound="CCc1cc2ccc(C(C)(C#N)Cc3nc(C#N)cc(OC)n3)cc2[nH]c1=O (single isomer, unassigned) [Compound 204]" relational_operator== value_reported=6.8
compound="Cc1cc2ccc(C(C)(C#N)C3CCc4cc(Br)ccc43)cc2[nH]c1=O (stereo not shown) [Compound 244]" relational_operator== value_reported=6.6
compound="CCc1cc2ccc(C(C)(C#N)Cc3cc(Cl)cc4c3OCOC4)cc2[nH]c1=O (stereo not shown) [Compound 92]" relational_operator== value_reported=5.4
compound="CCc1cc2ccc(C(C)(C#N)CC3COc4ccccc4O3)cc2[nH]c1=O (single isomer, unassigned) [Compound 48]" relational_operator== value_reported=5.4
compound="CCc1cc2ccc(C(C)(C#N)CC3COc4ccccc4O3)cc2[nH]c1=O (single isomer, unassigned) [Compound 47]" relational_operator=< value_reported=5
compound="CCc1cc2ccc(C(C)(C#N)Cc3cc(F)cc(F)c3)cc2[nH]c1=O (stereo not shown) [Compound 402]" relational_operator== value_reported=6.4
compound="CCc1cc2ccc(C(C)(C#N)C3CCc4ccc(Br)cc43)cc2[nH]c1=O (single isomer, unassigned) [Compound 381]" relational_operator== value_reported=7.0
compound="CCc1cc2ccc(C(C)(C#N)C3CCc4ccc(Br)cc43)cc2[nH]c1=O (single isomer, unassigned) [Compound 380]" relational_operator== value_reported=5.5

---

Molecular target: TANK-2 enzyme (Homo sapiens)
Construct: made in house
Sequence (Q9H2K2 1-1166): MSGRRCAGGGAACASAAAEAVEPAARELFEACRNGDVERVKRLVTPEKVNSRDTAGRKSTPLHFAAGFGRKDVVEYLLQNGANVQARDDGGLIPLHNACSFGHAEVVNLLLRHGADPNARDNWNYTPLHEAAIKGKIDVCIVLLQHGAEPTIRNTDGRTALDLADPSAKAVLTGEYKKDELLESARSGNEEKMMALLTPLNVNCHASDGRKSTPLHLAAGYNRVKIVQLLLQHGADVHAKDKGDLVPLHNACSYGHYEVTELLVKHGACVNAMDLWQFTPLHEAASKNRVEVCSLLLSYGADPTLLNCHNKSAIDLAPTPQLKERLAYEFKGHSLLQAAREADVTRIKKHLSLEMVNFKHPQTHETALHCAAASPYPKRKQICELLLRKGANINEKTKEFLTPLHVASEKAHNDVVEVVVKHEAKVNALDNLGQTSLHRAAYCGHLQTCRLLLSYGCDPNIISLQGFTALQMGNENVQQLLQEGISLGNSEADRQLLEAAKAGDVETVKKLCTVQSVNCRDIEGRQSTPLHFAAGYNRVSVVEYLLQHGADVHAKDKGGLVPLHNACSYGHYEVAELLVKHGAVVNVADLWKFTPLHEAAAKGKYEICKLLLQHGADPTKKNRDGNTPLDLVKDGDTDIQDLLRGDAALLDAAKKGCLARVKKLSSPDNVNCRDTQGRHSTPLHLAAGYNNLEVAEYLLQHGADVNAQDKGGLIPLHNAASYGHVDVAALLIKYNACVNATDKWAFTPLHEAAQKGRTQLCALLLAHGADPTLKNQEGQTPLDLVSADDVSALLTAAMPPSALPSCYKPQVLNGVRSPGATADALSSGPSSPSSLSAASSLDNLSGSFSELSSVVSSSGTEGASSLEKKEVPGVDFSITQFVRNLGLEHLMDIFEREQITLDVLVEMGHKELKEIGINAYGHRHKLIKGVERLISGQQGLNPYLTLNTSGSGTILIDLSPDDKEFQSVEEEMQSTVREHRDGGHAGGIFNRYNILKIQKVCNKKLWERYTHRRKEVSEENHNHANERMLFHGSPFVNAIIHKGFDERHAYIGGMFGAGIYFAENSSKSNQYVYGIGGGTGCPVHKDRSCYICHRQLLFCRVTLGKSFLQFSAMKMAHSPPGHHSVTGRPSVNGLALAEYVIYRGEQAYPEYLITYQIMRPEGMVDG
Experiment: In vitro Scintillation Proximity Assay (SPA) for TANK-2 inhibitory activity
Assay type: biochemical
Conditions: read-out: in vitro SPA assay TANK-2 pIC50 (converted)
Let's look at some compounds and their measured IC50.
readout-type: IC50 (µM)

compound="CCc1cc2ccc(C(C)(C#N)Cc3cc(F)cc(F)c3)cc2[nH]c1=O (centres unmarked) [Compound 128]" value_reported=0.158
compound="Cc1cc2ccc(C(C)(C#N)C3CCc4ccc(Br)cc43)cc2[nH]c1=O (centres unmarked)" value_reported=2.51
compound="CCc1cc2ccc(C(C)(C#N)Cc3cc(OC)ccc3F)cc2[nH]c1=O (centres unmarked)" value_reported=0.2
compound="CCc1cc2ccc(C(C)(C#N)CCOc3cccc(Cl)c3)cc2[nH]c1=O (centres unmarked)" value_reported=0.2
compound="CCc1cc2ccc(C(C)(C#N)Cc3cc(F)cc(Cl)c3)cc2[nH]c1=O (centres unmarked)" value_reported=0.1
